Readings of shrunken log2 fold change for the listed sequences
Test system: Escherichia coli TOP10;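 also: peptides expressed intracellularly from a pBAD plasmid library in pooled LB shake-flask culture, induced with 0.3% L-arabinose, DNA abundance read by NGS, three biological replicates, DESeq2 with apeglm shrinkage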
assay notes: shrunken log2 fold change of peptide-encoding DNA abundance (4.5 h post-induction vs induction); higher = less antimicrobial activity (less host growth inhibition)
reported conditions: time post-induction: 4.5 h; library: site-saturation at positions 5, 18, 19, 20
measured property: shrunken log2 fold change

* RRIRCRPPRLPRPRPRPRRTPRP | 0.54
* RRIRWRPPRLPRPRPRPYCDPRP | -0.218
* RRIRHRPPRLPRPRPRPWFSPRP | -0.294
* RRIRIRPPRLPRPRPRPAGVPRP | 0.293
* RRIRGRPPRLPRPRPRPVSSPRP | 0.0973
* RRIRHRPPRLPRPRPRPKSVPRP | -0.0127
* RRIRNRPPRLPRPRPRPYTSPRP | -0.325
* RRIRNRPPRLPRPRPRPVPSPRP | 0.155
* RRIRPRPPRLPRPRPRPRYIPRP | -0.602
